molecular target: human GPR17 long isoform V96M (hGPR17L-V96M) (Homo sapiens, UniProt Q13304, V96M); assay: calcium flux in GLUTag cells expressing hGPR17L-V96M
Sequence (Q13304 whole entry V96M, canonical isoform): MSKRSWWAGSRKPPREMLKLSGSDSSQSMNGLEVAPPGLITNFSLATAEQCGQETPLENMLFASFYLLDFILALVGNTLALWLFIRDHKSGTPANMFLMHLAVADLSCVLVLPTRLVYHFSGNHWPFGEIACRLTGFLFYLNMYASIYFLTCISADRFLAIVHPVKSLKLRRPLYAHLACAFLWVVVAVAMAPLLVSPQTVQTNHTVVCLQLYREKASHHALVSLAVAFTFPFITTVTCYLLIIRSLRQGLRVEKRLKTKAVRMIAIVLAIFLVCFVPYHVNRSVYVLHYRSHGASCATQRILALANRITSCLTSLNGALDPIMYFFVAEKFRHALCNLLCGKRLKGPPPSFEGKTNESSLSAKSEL
ATTRIBUTE MEASURED: EC50 (nM)
Enter your answer as a number in nM; do not include the unit.

Input line: Find EC50 (human GPR17 long isoform V96M (hGPR17L-V96M) (Homo sapiens, UniProt Q13304, V96M)) for the entry "O=C(O)CCc1c(C(=O)O)[nH]c2cc(Cl)cc(Cl)c12"
Output line: 580
